Answer each item with its documented Maximum coronary flow.
test system: coronary artery; experiment: Test for coronary dilating action (intracoronary administration, coronary blood flow in anaesthetized dogs); type: in vivo; details: 10 μg./dog directly into the coronary artery, potency of adenosine taken as unity
Numbers only.

Go through the list and state Maximum coronary flow for each entry.
1. Nc1ncnc2c1ncn2[C@@H]1O[C@H](CO)[C@@H](O)[C@H]1O [Adenosine]
2. Nc1nc(NC2CCCCC2)nc2c1ncn2[C@@H]1O[C@H](CO)[C@@H](O)[C@H]1O [N^2 -Cyclohexyl-2,6-diaminonebularine, N^2-cyclohexyl-2,6-diaminonebularine]
3. COc1ccc(Nc2nc(N)c3ncn([C@@H]4O[C@H](CO)[C@@H](O)[C@H]4O)c3n2)cc1
4. Nc1nc(N)c2ncn([C@@H]3O[C@H](CO)[C@@H](O)[C@H]3O)c2n1 [2,6-Diaminonebularine, 2,6-diaminonebularine]
5. Nc1nc(Nc2ccccc2)nc2c1ncn2[C@@H]1O[C@H](CO)[C@@H](O)[C@H]1O [N^2 -Phenyl-2,6-diaminonebularine, N^2-phenyl-2,6-diaminonebularine]

1: 1.00; 2: 2.20; 3: 2.37; 4: 0.50; 5: 6.75

Assign Maximum coronary flow to the following record: CCNc1nc(N)c2ncn([C@@H]3O[C@H](CO)[C@@H](O)[C@H]3O)c2n1 [N^2 -Ethyl-2,6-diaminonebularine, N^2-ethyl-2,6-diaminonebularine]
0.91

Hello, the source for this data is patent US3936439A, in case you need it.
